- Tested on: CYP1A
- method.summary: in vitro
- recorded.conditions: nude, mouse, pH 7.8, inhibition of dermal CYP1A activity
quantity.name: inhibition at 10 min, 10 µM

Prompt: Given the entry `O=c1c(-c2ccc(O)cc2)coc2cc(O)ccc12` , report its measured inhibition at 10 min, 10 µM.
Response: ~28%

====

- Test system: CYP1A
- method.summary: in vitro
- recorded.conditions: nude, mouse, pH 7.8
quantity.name: inhibition at 10 min, 100 µM

Prompt: Which inhibition at 10 min, 100 µM is reported for this compound? `O=c1c(O)c(-c2ccc(O)c(O)c2)oc2cc(O)cc(O)c12`
Response: ~92%

Prompt: I would be grateful if you could share the reported inhibition at 10 min, 100 µM for `O=c1c(-c2ccc(O)cc2)coc2cc(O[C@@H]3O[C@H](CO)[C@@H](O)[C@H](O)[C@H]3O)ccc12` .
Response: ~30%

Prompt: Returns the measured inhibition at 10 min, 100 µM for the input compound. Input: `CCCCCCCCCCCCO`
Response: ~48%

Prompt: # input compound: `C=CC(=C)CCC=C(C)C` ; wanted: its inhibition at 10 min, 100 µM
Response: ~26%

Prompt: Return reported inhibition at 10 min, 100 µM; argument: `C[C@@H]1O[C@@H](Oc2c(-c3ccc(O)c(O)c3)oc3cc(O)cc(O)c3c2=O)[C@H](O)[C@H](O)[C@H]1O`
Response: ~25%

Prompt: Which inhibition at 10 min, 100 µM value belongs to `O=c1c(-c2ccc(O)cc2)coc2cc(O)cc(O)c12` ?
Response: ~65%

Prompt: Returns the measured inhibition at 10 min, 100 µM for the input compound. Input: CC(Cc1ccc(O)c(O)c1)C(C)Cc1ccc(O)c(O)c1 (stereo not drawn) [Nordihydroguaiaretic acid]
Response: ~41%

Prompt: // lookup inhibition at 10 min, 100 µM for `COc1ccc(-c2cc(=O)c3c(O)cc(O[C@@H]4O[C@H](CO[C@@H]5O[C@@H](C)[C@H](O)[C@@H](O)[C@H]5O)[C@@H](O)[C@H](O)[C@H]4O)cc3o2)cc1O`
Response: ~67%

Prompt: Requested read-out: inhibition at 10 min, 100 µM. Entry: O=C/C=C/c1ccccc1 [Trans-cinnamaldehyde]
Response: ~80%

====

- Tested on: CYP1A
- method.summary: in vitro
- recorded.conditions: nude, mouse, pH 7.8, dermal CYP1A activity (% of control group)
quantity.name: activity at 10 min, 10 µM (%)
Output spec: scalar in %, unitless text.

Prompt: Need activity at 10 min, 10 µM, item `O=c1c(O[C@@H]2O[C@H](CO)[C@@H](O)[C@H](O)[C@H]2O)c(-c2ccc(O)c(O)c2)oc2cc(O)cc(O)c12`
Response: 67

Prompt: Looking for the measured activity at 10 min, 10 µM of `O=c1cc(-c2ccc(O)cc2)oc2cc(O)cc(O)c12` , can you help?
Response: 97.2

Prompt: So what does the record say about activity at 10 min, 10 µM for `COc1ccc([C@@H]2CC(=O)c3c(O)cc(O)cc3O2)cc1O` ?
Response: 24.6

Prompt: Need activity at 10 min, 10 µM of `O=c1cc(-c2ccc(O)c(O)c2)oc2cc(O)cc(O)c12` , thanks.
Response: 19.4

====

Exercise: for every item that follows, state its recorded activity at 10 min, 100 µM.
- System: CYP1A
- method.summary: Liver microsomal CYP1A enzymatic activity, inhibition or enhancement
- recorded.conditions: nude, mouse, liver microsomes, pH 7.8, probe 7-ethoxyresorufin
A number alone suffices; assume %.

Prompt: Notebook: pull reported activity at 10 min, 100 µM for CYP1A, entry O=c1c(O)c(-c2ccc(O)cc2)oc2cc(O)cc(O)c12 [Kaempferol]
Response: 18.1

Prompt: Lab note: need activity at 10 min, 100 µM for C[C@@]12C[C@@]3(O)O[C@@H](O1)[C@]1(COC(=O)c4ccccc4)[C@H]3C[C@@]12O[C@@H]1O[C@H](CO)[C@@H](O)[C@H](O)[C@H]1O [Paeoniflorin] on CYP1A, anyone have it?
Response: 121

Prompt: Request body: readout activity at 10 min, 100 µM, system CYP1A, query O=c1c(O)c(-c2ccc(O)c(O)c2)oc2cc(O)cc(O)c12 [Quercetin] . Return the value.
Response: 19.2

Prompt: Recorded activity at 10 min, 100 µM for COc1ccc(-c2coc3cc(O)ccc3c2=O)cc1 [Formononetin] with CYP1A, please?
Response: 145

Prompt: # get_value(readout= activity at 10 min, 100 µM, system= CYP1A) for O=C(O)/C=C/c1ccc(O)cc1O [Umbellic acid]
Response: 121

Prompt: Identify the measured activity at 10 min, 100 µM of CCCCCCCCCCCCO [Lauryl alcohol] for CYP1A.
Response: 101

Prompt: // fetch CYP1A activity at 10 min, 100 µM for O=c1c(O[C@@H]2O[C@H](CO)[C@@H](O)[C@H](O)[C@H]2O)c(-c2ccc(O)c(O)c2)oc2cc(O)cc(O)c12 [Isoquercitrin]
Response: 95.7

Prompt: Give activity at 10 min, 100 µM (CYP1A) of the following compound: CC12CCC(CC1)C(C)(C)O2 [Cineole]
Response: 94.7

Prompt: What activity at 10 min, 100 µM appears in the records for this compound with CYP1A? CC1(C)CC[C@]2(C(=O)O)CC[C@]3(C)C(=CC[C@@H]4[C@@]5(C)CC[C@H](O)C(C)(C)[C@@H]5CC[C@]43C)[C@@H]2C1 [Oleanolic acid]
Response: 87.3

Prompt: Observed activity at 10 min, 100 µM on CYP1A for O=C(O)c1ccc(O)c(O)c1 [Protocatechuic acid] , please.
Response: 107

Prompt: Return activity at 10 min, 100 µM measured with CYP1A given this compound: O=C(O)c1cc(O)c(O)c(O)c1 [Gallic acid]
Response: 105

Prompt: Give CYP1A activity at 10 min, 100 µM for C[C@@H]1O[C@@H](OC[C@H]2O[C@@H](Oc3c(-c4ccc(O)c(O)c4)oc4cc(O)cc(O)c4c3=O)[C@H](O)[C@@H](O)[C@@H]2O)[C@H](O)[C@H](O)[C@H]1O [Rutin]
Response: 90.7

Prompt: # returns recorded activity at 10 min, 100 µM (system: CYP1A) for O=c1cc(-c2ccc(O)c(O)c2)oc2cc(O)cc(O)c12 [Luteolin]
Response: 33.4

Prompt: Form entry - test system: CYP1A; read-out: activity at 10 min, 100 µM; compound: COc1ccc(-c2cc(=O)c3c(O)cc(O[C@@H]4O[C@H](CO[C@@H]5O[C@@H](C)[C@H](O)[C@@H](O)[C@H]5O)[C@@H](O)[C@H](O)[C@H]4O)cc3o2)cc1O [Diosmin]
Response: 43.8

Prompt: Find the measured activity at 10 min, 100 µM: item O=c1c(-c2ccc(O)cc2)coc2cc(O[C@@H]3O[C@H](CO)[C@@H](O)[C@H](O)[C@H]3O)ccc12 [Daidzin] , target or system CYP1A.
Response: 111

Prompt: Notebook entry, CYP1A assay: activity at 10 min, 100 µM of CC(=O)OCCCc1ccccc1 [3-Phenyl propyl acetate, 3-phenylpropyl acetate] = ?
Response: 157

====

- Tested on: CYP1A
- method.summary: Liver microsomal CYP1A enzymatic activity, inhibition or enhancement
- recorded.conditions: nude, mouse, liver microsomes, pH 7.8, probe 7-ethoxyresorufin
quantity.name: activity at 10 min, 100 µM

Prompt: Which activity at 10 min, 100 µM is listed for `CC(C)[C@@H](C)/C=C/[C@@H](C)[C@H]1CC[C@H]2C3=CC=C4C[C@@H](O)CC[C@]4(C)[C@H]3CC[C@]12C` ?
Response: 97.7%

Prompt: activity at 10 min, 100 µM lookup needed for `O=c1c(-c2ccc(O)cc2)coc2cc(O)cc(O)c12` , thanks.
Response: 109%

Prompt: Query (molecule): `C[C@@H]1O[C@@H](Oc2c(-c3ccc(O)c(O)c3)oc3cc(O)cc(O)c3c2=O)[C@H](O)[C@H](O)[C@H]1O` ; field requested: activity at 10 min, 100 µM
Response: 89.2%

Prompt: Can you look up the measured activity at 10 min, 100 µM of CC(Cc1ccc(O)c(O)c1)C(C)Cc1ccc(O)c(O)c1 (stereo not shown) [Nordihydroguaiaretic acid] for me?
Response: 119%

====

- System: CYP1A
- method.summary: Dermal microsomal CYP1A enzymatic activity (7-ethoxyresorufin-O-deethylase), inhibition or enhancement
- recorded.conditions: nude, mouse, pH 7.8
For each of the compounds below, state its activity at 10 min, 10 µM.
Form entry: value (%) — number only.

Prompt: // activity at 10 min, 10 µM lookup, key: O=c1c(-c2ccc(O)cc2)coc2cc(O)cc(O)c12 [Genistein]
Response: 60.2

Prompt: Entry C=C[C@H]1[C@H](O[C@@H]2O[C@H](CO)[C@@H](O)[C@H](O)[C@H]2O)OC=C2C(=O)OCC[C@]21O [Swertiamarin] : reported activity at 10 min, 10 µM = ?
Response: 96.5

Prompt: What does the record list as activity at 10 min, 10 µM for C[C@@H]1O[C@@H](Oc2c(-c3ccc(O)c(O)c3)oc3cc(O)cc(O)c3c2=O)[C@H](O)[C@H](O)[C@H]1O [Quercitrin] ?
Response: 77.1

Prompt: What value of activity at 10 min, 10 µM has been reported for the following compound? CC(Cc1ccc(O)c(O)c1)C(C)Cc1ccc(O)c(O)c1 (centres unmarked) [Nordihydroguaiaretic acid]
Response: 96.6

Prompt: What does the record list as activity at 10 min, 10 µM for O=c1c(O)c(-c2ccc(O)c(O)c2)oc2cc(O)cc(O)c12 [Quercetin] ?
Response: 41.9
